These entries and their values trace back to patent US8440710B2.

# SYSTEM: human HSL (Homo sapiens, UniProt Q05469)
# Construct: generate a full length human HSL ORF with a 3′-His6 tag
# Sequence (Q05469 whole entry): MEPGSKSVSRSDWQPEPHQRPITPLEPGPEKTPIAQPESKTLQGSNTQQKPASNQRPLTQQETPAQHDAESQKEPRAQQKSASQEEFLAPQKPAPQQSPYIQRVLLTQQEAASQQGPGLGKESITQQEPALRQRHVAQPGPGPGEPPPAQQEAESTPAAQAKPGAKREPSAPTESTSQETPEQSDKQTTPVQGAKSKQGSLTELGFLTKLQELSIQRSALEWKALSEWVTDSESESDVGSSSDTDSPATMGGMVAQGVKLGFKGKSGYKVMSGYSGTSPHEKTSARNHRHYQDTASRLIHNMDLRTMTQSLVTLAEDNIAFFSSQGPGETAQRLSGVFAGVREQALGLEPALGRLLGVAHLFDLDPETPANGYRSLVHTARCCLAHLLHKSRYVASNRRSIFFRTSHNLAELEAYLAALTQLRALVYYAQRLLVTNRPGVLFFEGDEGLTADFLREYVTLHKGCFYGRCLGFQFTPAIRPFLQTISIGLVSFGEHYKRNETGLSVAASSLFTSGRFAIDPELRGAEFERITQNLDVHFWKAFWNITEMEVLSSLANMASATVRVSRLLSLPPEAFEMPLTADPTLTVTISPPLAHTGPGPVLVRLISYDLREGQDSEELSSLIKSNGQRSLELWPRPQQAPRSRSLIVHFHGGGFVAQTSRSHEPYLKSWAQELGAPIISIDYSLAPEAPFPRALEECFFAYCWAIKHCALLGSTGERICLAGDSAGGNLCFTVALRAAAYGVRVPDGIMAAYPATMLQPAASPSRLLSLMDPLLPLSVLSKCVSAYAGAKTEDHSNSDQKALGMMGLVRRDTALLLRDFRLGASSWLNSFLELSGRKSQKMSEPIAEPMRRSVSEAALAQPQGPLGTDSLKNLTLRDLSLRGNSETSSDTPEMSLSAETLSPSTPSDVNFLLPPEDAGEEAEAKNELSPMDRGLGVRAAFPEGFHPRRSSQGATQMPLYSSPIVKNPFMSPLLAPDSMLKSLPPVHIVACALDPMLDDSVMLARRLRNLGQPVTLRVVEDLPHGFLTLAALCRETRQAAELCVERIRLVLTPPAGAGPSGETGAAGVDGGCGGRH
# PROTOCOL_DESCRIPTION: Human Hormone-Sensitive Lipase (HSL) enzyme inhibition assay (colorimetric, DMPT substrate)
# CONDITIONS: human full length HSL-His6, 2,3-dimercapto-1-propanol tributyrate substrate, 37° C. 20 minutes, absorbance at 405 nm; read-out: HSL hum IC50
IC50 values for the molecules below.
MEASURED_ENDPOINT: IC50 (µM)

{"MOLECULE": "CCc1ccc(N2CC[C@]3(CC[C@@](O)(COc4ccccc4)CC3)C2=O)cc1 [Example 228]", "SYSTEM": "human HSL (Homo sapiens, UniProt Q05469)", "VALUE_OBSERVED": 0.02}
{"MOLECULE": "CCc1ccc(N2CC[C@]3(CC[C@@](O)(COCC(F)(F)F)CC3)C2=O)cc1 [Example 231]", "SYSTEM": "human HSL (Homo sapiens, UniProt Q05469)", "VALUE_OBSERVED": 0.02}
{"MOLECULE": "COCCc1ccc(N2CC[C@]3(CC[C@@](O)(CC(C)C)CC3)C2=O)cc1 [Example 124]", "SYSTEM": "human HSL (Homo sapiens, UniProt Q05469)", "VALUE_OBSERVED": 0.02}

====

# SYSTEM: human HSL (Homo sapiens, UniProt Q05469)
# Construct: generate a full length human HSL ORF with a 3′-His6 tag
# PROTOCOL_DESCRIPTION: Human Hormone-Sensitive Lipase (HSL) enzyme inhibition assay (colorimetric, DMPT substrate)
# CONDITIONS: human full length HSL-His6, 2,3-dimercapto-1-propanol tributyrate substrate, 37° C. 20 minutes, absorbance at 405 nm; read-out: HSL hum IC50
Heads up, the class ranges for IC50 are I (below 60 nM), II (60 nM to below 200 nM), III (200 nM or more)

{"COMPOUND": "CO[C@H](c1ccc(N2CC[C@]3(CC[C@@](O)(COCC(F)(F)F)CC3)C2=O)cc1)C(F)(F)F [Example 372]", "CLASSIFICATION": "I"}
{"COMPOUND": "COCCO[C@H]1CC[C@@]2(CCN(c3ccc(OC(F)(F)F)cc3)C2=O)CC1 [Example 23]", "CLASSIFICATION": "II"}
{"COMPOUND": "O=C1N(c2ccc(OCC(F)(F)F)cc2)CC[C@]12CC[C@@](O)(COCC1CCC1)CC2 [Example 255]", "CLASSIFICATION": "I"}
{"COMPOUND": "C[C@@H](Oc1ccc(N2CC[C@]3(CC[C@@](O)(CO)CC3)C2=O)cc1)C(F)(F)F [Example 145]", "CLASSIFICATION": "III"}
{"COMPOUND": "CCOC[C@]1(O)CC[C@]2(CCN(c3ccc(O[C@H](C)C(F)(F)F)nc3)C2=O)CC1 [Example 311]", "CLASSIFICATION": "I"}
{"COMPOUND": "COCC#C[C@]1(O)CC[C@@]2(CCN(c3ccc(OC(F)(F)F)cc3)C2=O)CC1 [Example 72]", "CLASSIFICATION": "III"}
{"COMPOUND": "CCC[C@]1(O)CC[C@]2(CCN(c3ccc(O[C@@H](C)C(F)(F)F)cc3)C2=O)CC1 [Example 164a]", "CLASSIFICATION": "I"}
{"COMPOUND": "CCC[C@]1(O)CC[C@]2(CCN(Cc3ccc(OC(F)(F)F)cc3)C2=O)CC1 [Example 188]", "CLASSIFICATION": "II"}
{"COMPOUND": "COc1ccc(N2CC[C@]3(CC[C@@H](OCc4ccccc4)CC3)C2=O)cc1 [Example 3]", "CLASSIFICATION": "III"}
{"COMPOUND": "O=C1CCCCN1C[C@]1(O)CC[C@]2(CCN(c3ccc(OCC(F)(F)F)cc3)C2=O)CC1 [Example 368]", "CLASSIFICATION": "II"}
{"COMPOUND": "O=C1N(CCc2ccc(F)cc2)CC[C@]12CC[C@H](O)CC2 [Example 33]", "CLASSIFICATION": "III"}
